Origin of values: PubChem BioAssay (NCI)

system: SF-268 CNS; assay: NCI tumour cell line growth inhibition, 48 h
property_measured: TGI

Known TGI results, listed for orientation:
CN(C)CCC(C(=O)C(C)(C)C)c1ccccn1 (stereo not drawn) = > 100 µM
CN(C)/C=N/S(=O)(=O)c1nn2c(C=O)c(-c3ccc([N+](=O)[O-])cc3)nc2s1 = > 72.9 µM

As a next step, examine the molecule that follows.
get_value(item= `Cc1cc(=O)[nH]c2c3c(ccc12)OC(C)(C)C=C3` , readout=TGI) returns > 100 µM

###

test system: HCC-2998 colon; assay: NCI tumour cell line growth inhibition, 48 h; in the data active = GI50 below about 0.43 µM; inactive = the rest
I would appreciate it if you answered using one of these outcomes: 1.0 = active, 0.0 = inactive

Worked examples follow.
C=C1C(=O)OC2CC3(C)OC3C3OC3C3=CC(OC3=O)C12 (stereo unspecified) = 0.0
CCN(CC)c1ccc2nc3c4ccccc4c(=NC(=O)c4ccccc4-c4c5ccc(N(CC)CC)cc5[o+]c5cc(N(CC)CC)ccc45)cc-3oc2c1 = 0.0
COc1ccc(-n2cc(-c3ccc(OC)c(OC)c3)nc2SCc2ccccc2)cc1Cl = 0.0
CCCCCc1c(C)[nH]c(/C=c2\[nH]/c(=C3/C=c4ccccc4=N3)cc2OC)c1C = 1.0
CC(C)[O-].CC(C)[O-].[O-]c1cccc2cccnc12.[O-]c1cccc2cccnc12.[Ti+4] = 0.0
C[C@@H](Oc1cc(-c2cnn(C3CC4(CCCNC4)C3)c2)cnc1N)c1c(Cl)ccc(F)c1Cl (stereo partly specified) = 0.0

Answer briefly: the call reported for `O=C(NO)c1cnc(N2CCN(S(=O)(=O)c3ccc4ccccc4c3)CC2)nc1` in this assay. 1.0

Any idea what this test logged for `COc1cc(/C=C/C(=O)c2ccc(Nc3nc(Nc4ccccc4)nc(Nc4ccc(Cl)cc4)n3)cc2)cc(OC)c1OC` ? 0.0

Could you please tell me the result logged for `C/C(=N\Nc1cccc(Cl)n1)c1ccccn1` in this assay? 0.0

// return assay outcome for `C=C=[CH][Sn]([c]1ccccc1)([c]1ccccc1)[c]1ccccc1` 0.0

How was COc1ccc(-n2sc(=O)n(Cc3ccc(COC(=O)C(C)c4ccc(CC(C)C)cc4)cc3)c2=O)cc1 (stereo unspecified) classified in this test? 0.0
